Assay: Whole blood pharmacokinetics, LC-MS/MS, noncompartmental analysis
Format: in vivo, patients
Settings: human, whole blood, iv, 50 mg

{"item-smiles": "CO[C@H]1C[C@@H]2CC[C@@H](C)[C@@](O)(O2)C(=O)C(=O)N2CCCC[C@H]2C(=O)O[C@H]([C@H](C)C[C@@H]2CC[C@@H](OP(C)(C)=O)[C@H](OC)C2)CC(=O)[C@H](C)/C=C(\\C)[C@@H](O)[C@@H](OC)C(=O)[C@H](C)C[C@H](C)/C=C/C=C/C=C/1C", "half-life": "44.9 h"}

###

Test: Whole blood pharmacokinetics, LC-MS/MS, noncompartmental analysis
Format: in vivo, patients
Details: human, whole blood, intravenous
endpoint: half-life

{"item-smiles": "CO[C@H]1C[C@@H]2CC[C@@H](C)[C@@](O)(O2)C(=O)C(=O)N2CCCC[C@H]2C(=O)O[C@H]([C@H](C)C[C@@H]2CC[C@@H](OP(C)(C)=O)[C@H](OC)C2)CC(=O)[C@H](C)/C=C(\\C)[C@@H](O)[C@@H](OC)C(=O)[C@H](C)C[C@H](C)/C=C/C=C/C=C/1C", "reported": "45 to 52 h"}

###

Assay: Whole blood pharmacokinetics, LC-MS/MS, noncompartmental analysis
Type: in vivo, patients
Conditions: human, whole blood, iv, 12.5 mg
endpoint: Vd (L)

{"item-smiles": "CO[C@H]1C[C@@H]2CC[C@@H](C)[C@@](O)(O2)C(=O)C(=O)N2CCCC[C@H]2C(=O)O[C@H]([C@H](C)C[C@@H]2CC[C@@H](OP(C)(C)=O)[C@H](OC)C2)CC(=O)[C@H](C)/C=C(\\C)[C@@H](O)[C@@H](OC)C(=O)[C@H](C)C[C@H](C)/C=C/C=C/C=C/1C", "uom": "L", "reported": 111}

###

Assay: Whole blood pharmacokinetics, LC-MS/MS, noncompartmental analysis
Type: in vivo, patients
Conditions: human, whole blood, iv, 75 mg
endpoint: AUC (ng·h/mL)

{"molecule": "CO[C@H]1C[C@@H]2CC[C@@H](C)[C@@](O)(O2)C(=O)C(=O)N2CCCC[C@H]2C(=O)O[C@H]([C@H](C)C[C@@H]2CC[C@@H](OP(C)(C)=O)[C@H](OC)C2)CC(=O)[C@H](C)/C=C(\\C)[C@@H](O)[C@@H](OC)C(=O)[C@H](C)C[C@H](C)/C=C/C=C/C=C/1C [deforolimus]", "reported": 12700}

###

Test: Whole blood pharmacokinetics, LC-MS/MS, noncompartmental analysis
Type: in vivo, patients
Details: human, whole blood, iv, 50 mg
endpoint: AUC (ng·h/mL)

{"compound": "CO[C@H]1C[C@@H]2CC[C@@H](C)[C@@](O)(O2)C(=O)C(=O)N2CCCC[C@H]2C(=O)O[C@H]([C@H](C)C[C@@H]2CC[C@@H](OP(C)(C)=O)[C@H](OC)C2)CC(=O)[C@H](C)/C=C(\\C)[C@@H](O)[C@@H](OC)C(=O)[C@H](C)C[C@H](C)/C=C/C=C/C=C/1C [deforolimus]", "endpoint": "AUC", "reported": 10700}

###

Assay: Whole blood pharmacokinetics, LC-MS/MS, noncompartmental analysis
Format: in vivo, patients
Conditions: human, whole blood, iv, 75 mg
endpoint: half-life (h)

{"item-smiles": "CO[C@H]1C[C@@H]2CC[C@@H](C)[C@@](O)(O2)C(=O)C(=O)N2CCCC[C@H]2C(=O)O[C@H]([C@H](C)C[C@@H]2CC[C@@H](OP(C)(C)=O)[C@H](OC)C2)CC(=O)[C@H](C)/C=C(\\C)[C@@H](O)[C@@H](OC)C(=O)[C@H](C)C[C@H](C)/C=C/C=C/C=C/1C", "uom": "h", "reported": 47.3}

###

Assay: Whole blood pharmacokinetics, LC-MS/MS, noncompartmental analysis
Format: in vivo, patients
Settings: human, whole blood, iv, 25 mg

{"item-smiles": "CO[C@H]1C[C@@H]2CC[C@@H](C)[C@@](O)(O2)C(=O)C(=O)N2CCCC[C@H]2C(=O)O[C@H]([C@H](C)C[C@@H]2CC[C@@H](OP(C)(C)=O)[C@H](OC)C2)CC(=O)[C@H](C)/C=C(\\C)[C@@H](O)[C@@H](OC)C(=O)[C@H](C)C[C@H](C)/C=C/C=C/C=C/1C", "uom": "mL/min", "clearance": 48.3}

###

Experiment: Whole blood pharmacokinetics, LC-MS/MS, noncompartmental analysis
Format: in vivo, patients
Details: human, whole blood, iv, 100 mg
endpoint: clearance (mL/min)

{"compound": "CO[C@H]1C[C@@H]2CC[C@@H](C)[C@@](O)(O2)C(=O)C(=O)N2CCCC[C@H]2C(=O)O[C@H]([C@H](C)C[C@@H]2CC[C@@H](OP(C)(C)=O)[C@H](OC)C2)CC(=O)[C@H](C)/C=C(\\C)[C@@H](O)[C@@H](OC)C(=O)[C@H](C)C[C@H](C)/C=C/C=C/C=C/1C [deforolimus]", "endpoint": "clearance", "uom": "mL/min", "reported": 128}

###

Test: Whole blood pharmacokinetics, LC-MS/MS, noncompartmental analysis
Type: in vivo, patients
Conditions: human, whole blood, iv, 6.25 mg

{"compound": "CO[C@H]1C[C@@H]2CC[C@@H](C)[C@@](O)(O2)C(=O)C(=O)N2CCCC[C@H]2C(=O)O[C@H]([C@H](C)C[C@@H]2CC[C@@H](OP(C)(C)=O)[C@H](OC)C2)CC(=O)[C@H](C)/C=C(\\C)[C@@H](O)[C@@H](OC)C(=O)[C@H](C)C[C@H](C)/C=C/C=C/C=C/1C [deforolimus]", "half-life": "2.18 days"}

###

Assay: Whole blood pharmacokinetics, LC-MS/MS, noncompartmental analysis
Format: in vivo, patients
Conditions: human, whole blood, iv, 6.25 mg

{"item-smiles": "CO[C@H]1C[C@@H]2CC[C@@H](C)[C@@](O)(O2)C(=O)C(=O)N2CCCC[C@H]2C(=O)O[C@H]([C@H](C)C[C@@H]2CC[C@@H](OP(C)(C)=O)[C@H](OC)C2)CC(=O)[C@H](C)/C=C(\\C)[C@@H](O)[C@@H](OC)C(=O)[C@H](C)C[C@H](C)/C=C/C=C/C=C/1C", "uom": "ng·h/mL", "AUC": 3800}

###

Assay: Whole blood pharmacokinetics, LC-MS/MS, noncompartmental analysis
Type: in vivo, patients
Details: human, whole blood, iv, 12.5 mg

{"item-smiles": "CO[C@H]1C[C@@H]2CC[C@@H](C)[C@@](O)(O2)C(=O)C(=O)N2CCCC[C@H]2C(=O)O[C@H]([C@H](C)C[C@@H]2CC[C@@H](OP(C)(C)=O)[C@H](OC)C2)CC(=O)[C@H](C)/C=C(\\C)[C@@H](O)[C@@H](OC)C(=O)[C@H](C)C[C@H](C)/C=C/C=C/C=C/1C", "uom": "mL/min", "clearance": 45}

###

Test: Whole blood pharmacokinetics, LC-MS/MS, noncompartmental analysis
Format: in vivo, patients
Details: human, whole blood, iv, 50 mg

{"item-smiles": "CO[C@H]1C[C@@H]2CC[C@@H](C)[C@@](O)(O2)C(=O)C(=O)N2CCCC[C@H]2C(=O)O[C@H]([C@H](C)C[C@@H]2CC[C@@H](OP(C)(C)=O)[C@H](OC)C2)CC(=O)[C@H](C)/C=C(\\C)[C@@H](O)[C@@H](OC)C(=O)[C@H](C)C[C@H](C)/C=C/C=C/C=C/1C", "Cmax, µg/mL": 0.982}

###

Assay: Whole blood pharmacokinetics, LC-MS/MS, noncompartmental analysis
Format: in vivo, patients
Conditions: human, whole blood, iv, 12.5 mg
endpoint: AUC (ng·h/mL)

{"item-smiles": "CO[C@H]1C[C@@H]2CC[C@@H](C)[C@@](O)(O2)C(=O)C(=O)N2CCCC[C@H]2C(=O)O[C@H]([C@H](C)C[C@@H]2CC[C@@H](OP(C)(C)=O)[C@H](OC)C2)CC(=O)[C@H](C)/C=C(\\C)[C@@H](O)[C@@H](OC)C(=O)[C@H](C)C[C@H](C)/C=C/C=C/C=C/1C", "reported": 5100}

###

Experiment: Whole blood pharmacokinetics, LC-MS/MS, noncompartmental analysis
Assay type: in vivo, patients
Conditions: human, whole blood, iv, 75 mg

{"molecule": "CO[C@H]1C[C@@H]2CC[C@@H](C)[C@@](O)(O2)C(=O)C(=O)N2CCCC[C@H]2C(=O)O[C@H]([C@H](C)C[C@@H]2CC[C@@H](OP(C)(C)=O)[C@H](OC)C2)CC(=O)[C@H](C)/C=C(\\C)[C@@H](O)[C@@H](OC)C(=O)[C@H](C)C[C@H](C)/C=C/C=C/C=C/1C [deforolimus]", "Cmax (ng/mL)": 1200}

###

Test: Whole blood pharmacokinetics, LC-MS/MS, noncompartmental analysis
Assay type: in vivo, patients
Settings: human, whole blood, iv, 6.25 mg

{"item-smiles": "CO[C@H]1C[C@@H]2CC[C@@H](C)[C@@](O)(O2)C(=O)C(=O)N2CCCC[C@H]2C(=O)O[C@H]([C@H](C)C[C@@H]2CC[C@@H](OP(C)(C)=O)[C@H](OC)C2)CC(=O)[C@H](C)/C=C(\\C)[C@@H](O)[C@@H](OC)C(=O)[C@H](C)C[C@H](C)/C=C/C=C/C=C/1C", "clearance [mL/min]": 28.3}
